assay: Clearance in Sprague-Dawley rat at 5 mg/kg, po or 1 mg/kg, iv; type: ADME, organism-based; settings: in vivo
property measured: clearance (mL/min/kg)
Dear colleague, please return just the value in mL/min/kg, with no unit written.

What does the data say about its clearance? Entry: Nc1nc2cccc(-c3cccc(Cl)c3Cl)n2n1
12.2

----------
test: Cytotoxicity against human MT4 cells assessed as reduction in cell viability incubated for 72 hrs by celltiter glo assay; type: cell-based
property measured: CC50 at 72 h

Look over these answered cases.
mol	observed value
Nc1nc2cccc(-c3cccc(Cl)c3Cl)n2n1	> 50 µM
CNc1cc(-c2cccc(Cl)c2Cl)nc(N)n1	0.726 µM

Okay, now this compound:
Suppose we examine the compound CC(=O)Nc1cc2c(c(-c3cccc(C)c3C)n1)CCCN2 ; what CC50 at 72 h value has been reported?
19 µM
